target: mTOR/GbL/Raptor (mTORC1) (Homo sapiens)
assay-text: mTOR/GbL/Raptor (mTORC1) ELISA assay
recorded-conditions: phosphorylation of 4E-BP1; 0.2 nM mTORC1, 10 μM ATP; read-out: IC50 in this assay (mTORC1 ELISA)
Quick reference for IC50 among some molecules
measurement-type: IC50

- C=C[C@H]1CCCc2c(ncnc2N2CCOc3ccc(-c4cnc5nc(C)[nH]c5c4)cc3C2)C1 [Example 489]: ≤ 10 nM
- COc1cc2nccc(N3CCOc4ccc(-c5ccc6nc(N)[nH]c6c5)cc4C3)c2cc1OC [Example 191]: 250 to 1000 nM
- CC1(C)CCc2ncnc(N3CCOc4ccc(-c5cnc6[nH]c(C7CC7)nc6c5)cc4C3)c2C1 [Example 224]: ≤ 10 nM
- CC1(C)CCc2ncnc(N3CCOc4ccc(-c5cnc(N)c(S(=O)(=O)N6CC(N)C6)c5)cc4C3)c2C1 [Example 443]: ≤ 10 nM
- CC1=CC(C)(C)Cc2c1ncnc2N1CCOc2ccc(-c3cnc4nc(C)[nH]c4c3)cc2C1 [Example 554]: ≤ 10 nM
- Cc1nc2ncc(-c3ccc4c(c3)CN(c3ncncc3C)CCO4)cc2[nH]1 [Example 169]: 250 to 1000 nM

---

target: mTOR/GbL/Raptor (mTORC1) (Homo sapiens, UniProt P42345)
assay-text: mTOR/GbL/Raptor (mTORC1) ELISA assay
recorded-conditions: phosphorylation of 4E-BP1; 0.2 nM mTORC1, 10 μM ATP; read-out: IC50 in this assay (mTORC1 ELISA)
Quick reference for IC50 among some molecules
measurement-type: IC50

- CC1(C)CCc2ncnc(N3CCOc4ccc(-c5ccc6nc(N)[nH]c6c5)cc4C3)c2C1: ≤ 10 nM
- CNCc1nc2c(c(N3CCOc4ccc(-c5cnc6nc(C)[nH]c6c5)cc4C3)n1)CC(C)(C)CC2: ≤ 10 nM
- Cc1nc2ncc(-c3ccc4c(c3)CN(c3nc(CNCC(F)(F)F)nc5c3CC(C)(C)CC5)CCO4)cc2[nH]1: 10 to 50 nM
- CC(C)(N)CCNS(=O)(=O)c1cc(-c2ccc3c(c2)CN(c2ncnc4c2CC(C)(C)CC4)CCO3)cnc1N: 50 to 250 nM
- COc1cccc(-c2ccc3c(c2)CN(c2nc(CN(C)C)nc4c2CC(C)(C)CC4)CCO3)c1: ≥ 2000 nM

---

target: mTOR/GbL/Raptor (mTORC1) (Homo sapiens, UniProt P42345)
assay-text: mTOR/GbL/Raptor (mTORC1) ELISA assay
recorded-conditions: phosphorylation of 4E-BP1; 0.2 nM mTORC1, 10 μM ATP; read-out: IC50 in this assay (mTORC1 ELISA)
pIC50: −log10 of the molar value.
measurement-type: pIC50

- COc1c(Cl)cc2c(N3CCOc4ccc(-c5ccc6nc(C)[nH]c6c5)cc4C3)ncnc2c1OC: 6.00 to 6.60
- CC(C)c1nc2ccc(-c3ccc4c(c3)CN(c3ccnc5ccccc35)CCO4)cc2[nH]1: 5.70 to 6.00
- CCNc1nc2ccc(-c3ccc4c(c3)CN(c3ncnc(C)c3Cc3ccc(F)cc3)CCO4)cc2[nH]1: ≥ 8.00
- CC1(C)CCc2ncnc(N3CCOc4ccc(-c5cnc(N)c(S(=O)(=O)N6CC[C@@H](O)C6)c5)cc4C3)c2C1: 7.30 to 8.00
- CCC1CCc2ncnc(N3CCOc4ccc(-c5cnc6nc(N)[nH]c6c5)cc4C3)c2C1 (stereo not shown): ≥ 8.00
- CCNc1nc2ccc(-c3ccc4c(c3)CN(c3ncnc(NCC)c3C)CCO4)cc2[nH]1: 6.00 to 6.60
- Cc1nc2ccc(-c3ccc4c(c3)CN(c3nc(CN5CC[C@H](F)C5)nc5c3CC(C)(C)CC5)CCO4)cc2[nH]1: 6.60 to 7.30

---

Quick reference for pIC50 among some compounds
target: mTOR/GbL/Raptor (mTORC1) (Homo sapiens)
assay-text: mTOR/GbL/Raptor (mTORC1) ELISA assay
recorded-conditions: phosphorylation of 4E-BP1; 0.2 nM mTORC1, 10 μM ATP; read-out: IC50 in this assay (mTORC1 ELISA)
pIC50: −log10 of the molar value.
measurement-type: pIC50

• c1ccc2c(N3CCOc4ccc(-c5ccsc5)cc4C3)ccnc2c1 = ≤ 5.70
• Cc1nc2cc(-c3ccc4c(c3)CN(c3nc([C@H]5CCCN5)nc5c3CC(C)(C)CC5)CCO4)ccc2[nH]1 = 7.30 to 8.00
• Cc1nc2ccc(-c3ccc4c(c3)CN(c3ncnc(C)c3Cc3cc(F)cc(Cl)c3)CCO4)cc2[nH]1 = ≥ 8.00

---

target: mTOR/GbL/Raptor (mTORC1) (Homo sapiens)
assay-text: mTOR/GbL/Raptor (mTORC1) ELISA assay
recorded-conditions: phosphorylation of 4E-BP1; 0.2 nM mTORC1, 10 μM ATP; read-out: IC50 in this assay (mTORC1 ELISA)
pIC50: −log10 of the molar value.
measurement-type: pIC50

* Cc1nc2ccc(-c3ccc4c(c3)CN(c3ncnc5[nH]ncc35)CCO4)cc2[nH]1 | 5.70 to 6.00
* Cc1nc(N)nc(N2CCOc3ccc(-c4cnc5sc(N)nc5c4)cc3C2)c1Cc1ccc(F)cc1 | ≥ 8.00
* Cc1nc2ccc(-c3ccc4c(c3)CN(c3ncnc(Cc5ccccc5)c3C)CCO4)cc2[nH]1 | 6.00 to 6.60
* COc1ccc2c(N3CCOc4ccc(-c5ccc(-c6c[nH]cn6)cc5)cc4C3)nc(C)nc2c1 | 6.60 to 7.30
* Cc1nc2ncc(-c3ccc4c(c3)CN(c3nc(CNC(C)C5CC5)nc5c3CC(C)(C)CC5)CCO4)cc2[nH]1 (stereo not shown) | 7.30 to 8.00
* COCCNCc1nc2c(c(N3CCOc4ccc(-c5ccc6nc(C)[nH]c6c5)cc4C3)n1)CC(C)(C)CC2 | 7.30 to 8.00
* CC1(C)CCc2ncnc(N3CCOc4ccc(-c5cnc(N)c(S(=O)(=O)NCC6CNC6)c5)cc4C3)c2C1 | 7.30 to 8.00
* CC1=CC(C)(C)Cc2c1ncnc2N1CCOc2ccc(-c3cnc(N)c(S(=O)(=O)N4CC[C@@H](N)C4)c3)cc2C1 | ≥ 8.00
* COc1c(OCCN(C)C)ccc2c(N3CCOc4ccc(-c5ccc6nc(C)[nH]c6c5)cc4C3)ncnc12 | ≤ 5.70
* Cc1c(Nc2ccccc2)ncnc1N1CCOc2ccc(-c3cnc4nc(N)[nH]c4c3)cc2C1 | 7.30 to 8.00
* CCNc1nc2ccc(-c3ccc4c(c3)CN(c3cc(Nc5ccccc5)ncn3)CCO4)cc2[nH]1 | 6.60 to 7.30
* Cc1nc2c(c(N3CCOc4ccc(-c5cnc6nc(C7CC7)[nH]c6c5)cc4C3)n1)CC(C)(C)CC2 | ≥ 8.00
* CC[C@H]1CCc2c(ncnc2N2CCOc3ccc(-c4cnc5nc(N)[nH]c5c4)cc3C2)C1 | ≥ 8.00
* CCS(=O)(=O)c1cc(-c2ccc3c(c2)CN(c2ncnc4c2CC(C)(C)CC4)CCO3)cnc1N | 7.30 to 8.00
* c1ccc2c(N3CCOc4ccc(-c5ccc6nc(C7CCCCC7)[nH]c6c5)cc4C3)ccnc2c1 | 5.70 to 6.00
* CC1(C)CCc2ncnc(N3CCOc4ccc(-c5cnc(N)c(S(=O)(=O)N6CCCC6)c5)cc4C3)c2C1 | 6.60 to 7.30
* COc1ccc2c(N3CCOc4ccc(-c5ccc6nc(C)[nH]c6c5)cc4C3)ncnc2c1OC | 6.60 to 7.30
* CC1(C)CCc2ncnc(N3CCOc4ccc(-c5cnc(N)c(CS(C)(=O)=O)c5)cc4C3)c2C1 | 7.30 to 8.00
* CC1(C)CCc2ncnc(N3CCOc4ccc(-c5cncc(NS(C)(=O)=O)c5)cc4C3)c2C1 | 6.00 to 6.60
* COc1ccc2c(N3CCOc4ccc(-c5ccc6[nH]ncc6c5)cc4C3)nc(C)nc2c1 | ≤ 5.70
* Cc1nc2cc(-c3ccc4c(c3)CN(c3nc(CN5CCCC5)nc5c3CC(C)(C)CC5)CCO4)cnc2[nH]1 | ≥ 8.00
* CC(O)c1nc2cc(-c3ccc4c(c3)CN(c3ncnc5c3CC(C)(C)CC5)CCO4)cnc2[nH]1 (stereo not shown) | ≥ 8.00
* CC1(C)CCc2ncnc(N3CCOc4ccc(-c5cnc(N)c(S(=O)(=O)N6CCC6)c5)cc4C3)c2C1 | 7.30 to 8.00
* Cc1nc2ccc(-c3ccc4c(c3)CN(c3ncnc5c3CCN(Cc3ccccc3)C5)CCO4)cc2[nH]1 | 6.60 to 7.30
* CN(C)C1CN(S(=O)(=O)c2cc(-c3ccc4c(c3)CN(c3ncnc5c3CC(C)(C)CC5)CCO4)cnc2N)C1 | 6.60 to 7.30

---

target: mTOR/GbL/Raptor (mTORC1) (Homo sapiens, UniProt P42345)
assay-text: mTOR/GbL/Raptor (mTORC1) ELISA assay
recorded-conditions: phosphorylation of 4E-BP1; 0.2 nM mTORC1, 10 μM ATP; read-out: IC50 in this assay (mTORC1 ELISA)
Quick reference for IC50 among some compounds
measurement-type: IC50

• CCNc1nc2ccc(-c3ccc4c(c3)CN(c3cc(C)nc5cc(OC)ccc35)CCO4)cc2[nH]1 = 250 to 1000 nM
• CNc1ncc(-c2ccc3c(c2)CN(c2ncnc4c2CC(C)(C)CC4)CCO3)cc1NS(C)(=O)=O = 50 to 250 nM
• CNc1ncnc(N2CCOc3ccc(-c4cnc5nc(C)[nH]c5c4)cc3C2)c1C = 250 to 1000 nM
• CC1(C)CCc2ncnc(N3CCOc4ccc(-c5cnc(N)c(S(=O)(=O)N6C[C@H]7C[C@@H]6CN7)c5)cc4C3)c2C1 = 10 to 50 nM
• CC1(C)CCc2ncnc(N3CCOc4ccc(-c5cnc(N)nc5)cc4C3)c2C1 = 50 to 250 nM
• CCNc1nc2ccc(-c3ccc4c(c3)CN(c3nc(C)nc5ccccc35)CCO4)cc2[nH]1 = 50 to 250 nM
• CN(c1cc(-c2ccc3c(c2)CN(c2ncnc4c2CC(C)(C)CC4)CCO3)cnc1Cl)S(C)(=O)=O = 250 to 1000 nM
• Cc1nc(N)sc1-c1ccc2c(c1)CN(c1ncnc3c1CCC(C)(C)C3)CCO2 = 10 to 50 nM
• Cc1nc2ncc(-c3ccc4c(c3)CN(c3ncnc5c3C(C(F)(F)F)CCC5)CCO4)cc2[nH]1 (stereo not shown) = 250 to 1000 nM
• Cc1nc2ccc(-c3ccc4c(c3)CN(c3cc(C(F)(F)F)nc5ccccc35)CCO4)cc2[nH]1 = 50 to 250 nM
• Cc1nc2c(c(N3CCOc4ccc(-c5cnc(N)c(S(=O)(=O)N[C@@H]6CCN(C)C6)c5)cc4C3)n1)CC(C)(C)CC2 = 250 to 1000 nM
• Cc1nc2ncc(-c3ccc4c(c3)CN(c3nc(CN(C)C)nc5c3CC(C)(C)CC5)CCO4)cc2[nH]1 = ≤ 10 nM
• Cc1c(NC2CCOCC2)ncnc1N1CCOc2ccc(-c3cnc4nc(C5CC5)[nH]c4c3)cc2C1 = 250 to 1000 nM
